Listed here: items and their measured GI50.
System: SNB-78
procedure-details: NCI tumour cell line growth inhibition, 48 h
Calls of active or inactive are those of the source. No stated cut-off is given here; in the data, active = GI50 up to about 1.1 µM and inactive = higher.

Solved cases below.
O=C(Cc1nc2ccccc2o1)C(=O)Nc1cccc(Cl)c1	> 100 µM (inactive)
N#CC(C(=O)C(=O)Nc1ccc(Cl)cc1)c1ccccc1 (stereo not given)	> 100 µM (inactive)
COC(=O)c1s/c(=N\C(=S)N(C)C)n(-c2ccc(Cl)cc2)c1C(=O)OC	> 100 µM (inactive)
COC(=O)/C(=N\NC(N)=O)C(C#N)c1ccccc1 (stereo not given)	> 100 µM (inactive)
COc1ccc2c(c1)CC[C@@H]1C2CC[C@](C)(C#N)C1CC#N (stereo not given in full)	> 100 µM (inactive)

Name the reported GI50 value associated with the compound Clc1ccc(-c2nnc3c4nnc(-c5ccc(Cl)cc5Cl)n4c4ccccc4n23)c(Cl)c1
34.4 µM (inactive)

Name the reported GI50 value associated with the compound C[n+]1c2ccccc2c(NC(CCC(N)=O)C(=O)O)c2ccccc21 (stereo not given)
> 100 µM (inactive)

Name the reported GI50 value associated with the compound CN/N=C(/Cc1occc(=O)c1O)C(=O)Nc1ccc(C)c(C)c1
60.1 µM (inactive)

Name the reported GI50 value associated with the compound CN(C)c1nc(N(C)C)nc(N(C)CN(C)c2ccc(Cl)cc2)n1
> 100 µM (inactive)

Name the reported GI50 value associated with the compound N=C(N)NS(=O)(=O)c1ccc(NC(=O)c2cccc3c(O)c4ccccc4nc23)cc1
42.1 µM (inactive)

----------
System: MOLT-4
procedure-details: NCI tumour cell line growth inhibition, 48 h
Calls of active or inactive are those of the source. Rule as the data show it: active = GI50 up to about 1.1 µM and inactive = higher.
Can you answer with just one of these options? active, inactive

Some solved entries appear below for comparison.
O=C(Nc1nc(C23CC4CC(CC(C4)C2)C3)cs1)c1cc2ccccc2oc1=O	inactive
CC1=NN(c2nc(N)nc(CCl)n2)CC1	inactive
CC(=O)N[C@@H](Cc1ccc(O)cn1)C(=O)NC1CCCCC1	inactive
COC(=O)[C@H](Cc1ccccc1)NC(=O)N(CCC#N)CCCCN(CCC#N)C(=O)N[C@@H](Cc1ccccc1)C(=O)OC	inactive
NC(=O)N/N=C1/CCC(O)CC1CC(=O)O (stereo not given)	inactive
O=C(c1ccccc1)c1c(C(F)(F)F)[n+]([O-])c2cc(Cl)c(Cl)cc2[n+]1[O-]	active

Name the outcome recorded for O=C(O)c1ccc(NNC(=O)c2cccc3c(=O)c4ccccc4[nH]c23)cc1 in the assay.
inactive

Name the outcome recorded for Cc1ccc2c(c1)C(=O)C1(C2)Cc2cccc(C)c2C1=O (stereo not given) in the assay.
inactive

Name the outcome recorded for COC(=O)Cc1nc2ccccc2o1 in the assay.
inactive

----------
System: RPMI-8226
procedure-details: NCI tumour cell line growth inhibition, 48 h
Calls of active or inactive are those of the source. Rule as the data show it: active = GI50 up to about 1.1 µM and inactive = higher.
measured-quantity: GI50

C=C1C(=O)C23C(O)CC4C5(C)CCCC4(C(O)OC5)C2C(OC(C)=O)CC1C3O (stereo not given)	3.64 µM (inactive)
CC(=O)OCC1OC(n2cc([N+](=O)[O-])c(=O)[nH]c2=O)C(OC(C)=O)C(OC(C)=O)C1OC(C)=O (stereo not given)	> 100 µM (inactive)
COc1ccc(/C=C2\N=C(c3ccccc3)OC2=O)c(OCc2ccccc2)c1	15.8 µM (inactive)
O=C1C(c2ccc([N+](=O)[O-])cc2)=C(Cl)C(=O)c2c(O)cccc21	41.3 µM (inactive)

Name the reported GI50 value associated with the compound COC(=O)C1Cc2c(OC)ccc(OC)c2C(O)C1C(=O)OC (stereo not given)
> 100 µM (inactive)
